- System: Staphylococcus aureus
- measurementDescription: Antibacterial activity against Staphylococcus aureus MRSA ATCC 43300 (CO-ADD:GP_020); MIC in CAMBH media using NBS plates, by Resazurin F(560/590)
- Type: functional
- testParameters: Concentration 20 uM, ASSAY_TEST Inhibition of Bacterial Growth, detection method Resazurin, Fluorescence (ex560/em590), MEDIA CAMHB, plate type 384well, CORNING #3640, time 18 hr
Provide the reported Inhibition of each item.
# number only, unit % dropped from output

Inquiry: # input molecule: CC(=O)Oc1ccc2cc(-c3ccccc3)c(=O)oc2c1 ; wanted: its Inhibition
Reply text: 19.48

Inquiry: Thanks! And Clc1cc2c(c(CSc3nc4ccccc4n4cccc34)c1)OCOC2 ?
Reply text: 18.29

Inquiry: Thanks! And N=C(N)NS(=O)(=O)c1ccc(/N=C2/C(=O)Nc3ccccc32)cc1 ?
Reply text: 10.79

Inquiry: For COC(=NC(C)C)NC(C)C then?
Reply text: 0.33

Inquiry: Queued: C(=N\n1cnnc1)/c1ccc2c(c1)CCC2
Reply text: 10.16

Inquiry: // next record S=c1c2nc[nH]c2ncn1CCSC1=NC=NC2=NC=NC21 (centres undefined)
Reply text: 4.54

Inquiry: How about CC(C)=C(c1ccc(Cl)cc1)c1c(N)ncnc1N ?
Reply text: 3.52

Inquiry: Query NC(CC(=O)Nc1cc(C(F)(F)F)ccc1Cl)=NO next
Reply text: 9.76

Inquiry: Then what about the molecule C=C(C)C(=O)Nc1ccc(NC(C)C)cc1 ?
Reply text: 12

Inquiry: What would you report for CC1(C)N=C(N)N=C(N)N1c1cccc(CN)c1.CCS(=O)(=O)O ?
Reply text: 8.6

Inquiry: Thanks! And FC(F)(F)c1nc2nc(Cl)c(Cl)nc2n1CCCN1CCOCC1 ?
Reply text: 14.57

Inquiry: Then this molecule: COc1cc(OC)c2c(=O)cc(-c3cccnc3)oc2c1
Reply text: 13.2

Inquiry: Now consider CC1(C)N=C(N)N=C(NCCCOc2ccc([N+](=O)[O-])cc2)N1.CCS(=O)(=O)O and answer again.
Reply text: 25.11

Inquiry: Moving on to O=C(/C=C/c1cccnc1)/C=C/c1cccnc1
Reply text: 16.75

Inquiry: // repeat for Cc1nc(O)c(Cc2ccccc2O)c(-c2ccccc2)n1 and report
Reply text: 22.69

Inquiry: Could you do the same for Cn1ncc2c(Nc3ccccc3Cl)nc(Nc3ccccc3Cl)nc21 , please?
Reply text: 12.86

Inquiry: # iterate: C/C(=N\O)[C@H]1CC[C@H]2[C@@H]3CC[C@@H]4C/C(=N/O)CC[C@]4(C)[C@H]3[C@@](C)(O)C[C@]12C
Reply text: 13.92

Inquiry: Now consider Oc1nccc(SCc2ccc(Cl)cc2Cl)n1 .
Reply text: 9.05

Inquiry: Now this one: CCOC(=O)Nc1c(Cl)n(C)c(=O)n(C)c1=O
Reply text: -8.24

Inquiry: Proceed to NC(=O)c1ccccc1OCC(=O)Nc1ccc(Cl)c(Cl)c1
Reply text: 5.21

Inquiry: Field entry: CCCCNc1nc(N)ncc1[N+](=O)[O-]
Reply text: 5.28

Inquiry: Now the molecule Nc1nc(N)nc(C2C=CCCC2)n1 (centres undefined)
Reply text: 1.35

Inquiry: Next molecule up: Clc1ccc(/C=C/c2nc(Cl)c(-c3ccc(Cl)cc3)c(Cl)n2)cc1
Reply text: 8.11

Inquiry: And the next one, NS(=O)(=O)c1ccc(/N=N/c2c(O)c(C(=O)O)cc3ccccc23)cc1 ?
Reply text: -3.85
